target: NEK7 (Homo sapiens (Human), UniProt Q8TDX7+Q96SW2); test: NEK7 NanoBiT degradation assay in Cal51 NEK7 NanoBiT cell line; format: cell-based; conditions: NEK7 degradation, Cal51 NEK7 NanoBiT cells, 24 hours; read-out: NanoBiT DC50
Sequence (Q8TDX7 whole entry): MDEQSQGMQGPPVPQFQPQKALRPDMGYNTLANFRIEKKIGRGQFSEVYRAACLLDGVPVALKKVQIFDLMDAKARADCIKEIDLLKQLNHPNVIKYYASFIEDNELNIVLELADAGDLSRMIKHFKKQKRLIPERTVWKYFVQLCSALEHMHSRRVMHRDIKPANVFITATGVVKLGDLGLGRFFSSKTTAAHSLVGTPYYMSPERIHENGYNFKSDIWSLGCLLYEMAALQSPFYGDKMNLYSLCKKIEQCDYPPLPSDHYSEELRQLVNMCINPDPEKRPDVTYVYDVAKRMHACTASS
Sequence (Q96SW2 whole entry): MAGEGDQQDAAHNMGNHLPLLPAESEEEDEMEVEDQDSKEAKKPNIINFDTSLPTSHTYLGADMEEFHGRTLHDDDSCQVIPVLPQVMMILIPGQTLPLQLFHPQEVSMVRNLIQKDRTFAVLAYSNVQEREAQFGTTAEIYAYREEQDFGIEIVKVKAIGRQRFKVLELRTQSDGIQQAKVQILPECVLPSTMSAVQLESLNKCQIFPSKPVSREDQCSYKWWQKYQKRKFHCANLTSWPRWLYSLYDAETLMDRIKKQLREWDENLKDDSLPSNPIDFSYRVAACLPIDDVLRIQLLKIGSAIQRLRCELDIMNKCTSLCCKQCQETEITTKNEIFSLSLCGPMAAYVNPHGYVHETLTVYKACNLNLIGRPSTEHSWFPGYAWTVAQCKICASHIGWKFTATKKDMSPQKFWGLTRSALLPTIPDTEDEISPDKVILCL
Sequence (Q16531 2-1140 partner): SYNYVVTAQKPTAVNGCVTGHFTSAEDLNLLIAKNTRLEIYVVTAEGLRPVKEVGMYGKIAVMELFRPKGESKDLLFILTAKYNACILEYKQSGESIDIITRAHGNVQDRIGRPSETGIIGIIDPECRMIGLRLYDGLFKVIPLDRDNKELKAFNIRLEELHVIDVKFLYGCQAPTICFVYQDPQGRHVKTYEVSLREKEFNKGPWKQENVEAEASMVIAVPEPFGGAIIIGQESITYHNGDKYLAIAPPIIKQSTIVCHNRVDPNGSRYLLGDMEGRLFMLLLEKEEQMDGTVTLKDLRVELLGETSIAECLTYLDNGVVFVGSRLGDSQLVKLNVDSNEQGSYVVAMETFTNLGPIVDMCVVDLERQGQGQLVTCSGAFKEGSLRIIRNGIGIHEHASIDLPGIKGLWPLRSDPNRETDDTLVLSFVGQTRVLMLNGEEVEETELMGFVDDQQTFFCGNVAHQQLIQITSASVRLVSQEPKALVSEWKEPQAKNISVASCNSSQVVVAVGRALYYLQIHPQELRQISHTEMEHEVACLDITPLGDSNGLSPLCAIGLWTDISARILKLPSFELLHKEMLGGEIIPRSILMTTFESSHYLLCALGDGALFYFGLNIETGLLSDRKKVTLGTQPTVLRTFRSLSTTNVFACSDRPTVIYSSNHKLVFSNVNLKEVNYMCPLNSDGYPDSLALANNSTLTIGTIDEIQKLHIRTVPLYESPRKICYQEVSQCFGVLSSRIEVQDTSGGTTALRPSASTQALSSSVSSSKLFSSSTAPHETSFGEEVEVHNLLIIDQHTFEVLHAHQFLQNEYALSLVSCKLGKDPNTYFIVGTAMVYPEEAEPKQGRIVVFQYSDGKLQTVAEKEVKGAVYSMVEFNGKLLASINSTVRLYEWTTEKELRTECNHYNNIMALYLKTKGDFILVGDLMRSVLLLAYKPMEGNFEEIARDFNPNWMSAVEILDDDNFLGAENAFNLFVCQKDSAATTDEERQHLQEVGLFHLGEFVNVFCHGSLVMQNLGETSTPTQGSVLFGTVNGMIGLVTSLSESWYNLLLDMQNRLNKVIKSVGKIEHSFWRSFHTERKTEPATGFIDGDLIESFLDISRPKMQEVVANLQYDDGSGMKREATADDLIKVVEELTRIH
# reported DC50; entries follow

Examples with answers:
molecule	measured_target	observation_type	reported_value
CC(C)(C(=O)NCc1cc(Cl)c(C2CCC(=O)NC2=O)c(Cl)c1)c1cc(C2CC2)ncn1 (stereo not shown)	NEK7 (Homo sapiens (Human), UniProt Q8TDX7+Q96SW2)	DC50	≤ 100 nM
CC(C)(C(=O)NCc1cc(Cl)c(C2CCC(=O)NC2=O)c(Cl)c1)c1ccc(C(F)(F)F)nn1 (stereo not shown)	NEK7 (Homo sapiens (Human), UniProt Q8TDX7+Q96SW2)	DC50	≤ 100 nM
CC(C)(C(=O)NCc1cc(Cl)c(C2CCC(=O)NC2=O)c(Cl)c1)c1cccnn1 (stereo not shown)	NEK7 (Homo sapiens (Human), UniProt Q8TDX7+Q96SW2)	DC50	≤ 100 nM
CC(C)(C(=O)NCc1cc(Cl)c(C2CCC(=O)NC2=O)c(Cl)c1)c1cc(C(F)F)ncn1 (stereo not shown)	NEK7 (Homo sapiens (Human), UniProt Q8TDX7+Q96SW2)	DC50	≤ 100 nM

[ask] Indicate its recorded DC50; the molecule in question is CC(C)(C(=O)NCc1cc(Cl)c(C2CCC(=O)NC2=O)c(Cl)c1)c1ccno1 (stereo not shown)
[reply] ≤ 100 nM

[ask] Indicate its recorded DC50; the molecule in question is CC(C)(C(=O)NCc1cc(Cl)c(C2CCC(=O)NC2=O)c(Cl)c1)c1cnc(CO)cn1 (stereo not shown)
[reply] ≤ 100 nM

[ask] Indicate its recorded DC50; the molecule in question is CC(C)(C(=O)NCc1cc(F)c(C2CCC(=O)NC2=O)c(Cl)c1)c1cc(F)ccn1 (stereo not shown)
[reply] 100 to 1000 nM

[ask] Indicate its recorded DC50; the molecule in question is CC(C)(C(=O)NCc1cc(Cl)c(C2CCC(=O)NC2=O)c(Cl)c1)c1ccc(S(C)(=O)=O)cc1 (stereo not shown)
[reply] ≤ 100 nM

[ask] Indicate its recorded DC50; the molecule in question is O=C1CCC(c2c(Cl)cc(CNC(=O)C3(c4ccc(F)cc4)CC(F)(F)C3)cc2Cl)C(=O)N1 (stereo not shown)
[reply] ≤ 100 nM

[ask] Indicate its recorded DC50; the molecule in question is Cc1cnc(C(C)(C)C(=O)NCc2cc(Cl)c([C@@]3(F)CCC(=O)NC3=O)c(Cl)c2)nc1 (single isomer, unassigned)
[reply] > 1000 nM

[ask] Indicate its recorded DC50; the molecule in question is CC(C)(C(=O)NCc1cc(F)c(C2CCC(=O)NC2=O)c(Cl)c1)c1ccccc1 (stereo not shown)
[reply] ≤ 100 nM

[ask] Indicate its recorded DC50; the molecule in question is Cc1nc(C(C)(C)C(=O)NCc2cc(Cl)c(C3CCC(=O)NC3=O)c(Cl)c2)oc1C (stereo not shown)
[reply] ≤ 100 nM

[ask] Indicate its recorded DC50; the molecule in question is CC(C)(C(=O)NCc1cc(Cl)c(C2CCC(=O)NC2=O)c(Cl)c1)c1ccc2nnccc2c1 (stereo not shown)
[reply] ≤ 100 nM

[ask] Indicate its recorded DC50; the molecule in question is CC(C)(C(=O)NCc1cc(Cl)c(C2CCC(=O)NC2=O)c(Cl)c1)c1c[nH]cn1 (stereo not shown)
[reply] 100 to 1000 nM

[ask] Indicate its recorded DC50; the molecule in question is CC(C)(C(=O)NCc1cc(Cl)c(C2CCC(=O)NC2=O)c(Cl)c1)c1ccc(OC(F)F)nn1 (stereo not shown)
[reply] ≤ 100 nM

[ask] Indicate its recorded DC50; the molecule in question is CC(C)(C(=O)NCc1cc(Cl)c(C2CCC(=O)NC2=O)c(Cl)c1)c1ccn2ccnc2c1 (stereo not shown)
[reply] ≤ 100 nM
